Reference source: patent US20250027068

TESTED_ON: pooled human IgG
PROPERTY_MEASURED: Enzyme Activity Endpoint Assay (purified): Fab′2 (ng/µL)
The response must be a number in ng/µL with no trailing unit.

Asked: Reported Enzyme Activity Endpoint Assay (purified): Fab′2, protein PRT-666 (protein) MQITSVWTKGVTPPTPEQFRNNNEDVFHAPYLANQGWYDITKTFNGKDDLLCGAATAGNMLHWWFDQNKTEIEAYLKKHPEKQKIIFNNQELFDLKKAIDTKDSQTNSQLFNYFRDKAFPNLSARQLGVMPDLVLDMFINGYYLNVTKTQSTDVNRPYQDKDKRGGIFDAVFTRGDQTTLLTSRHDLKNKGLNEISDLIKQELTEGKALALSHTYANVSINHVINLWGADFNAEGNLEAIYVTDSDSNASIGMKKYFVGVNASGKVAISAKKIEGENIGAQVLGLFTLSSGKDIWQKLSLEHHHHHH : ____
Given back: 897

Asked: Recorded Enzyme Activity Endpoint Assay (purified): Fab′2 for PRT-72 (protein) MANQEIRYSEVTPYHVTSVWTKGVTPPAKFTQGEDVFHAPYVANQGWYDITKTFNGKDDLLCGAATAGNMLHWWFDQNKEYIEAYLKKHPEKQKIMFGDQELLDVRKVINTKGDQTNSELFNYFRDKAFPYLSARRLGVMPDLVLDMFINGYYLNVTKTQTTDVNRTYQEKDRRGGIFDAVFTRGDQSKLLTSRHDFKEKNLKEISDLIKKELTEGKALGLSHTYANVRINHVINLWGADFDSNGNLKAIYVTDSDSNASIGMKKYFVGVNSAGKVAISAKEIKEDNIGAQVLGLFTLSTGQDIWNQTN , please?
Given back: 41

Asked: // lookup Enzyme Activity Endpoint Assay (purified): Fab′2 for PRT-606 (protein) MQITSVWTKGVTPLTPEQFRYNNEDVIHAPYLAHQGWYDITKAFDGKDNLLCGAATAGNMLHWWFDQNKTEIEAYLSKYPDKQKIIFNNQELFDLKAAIDTKDSQTNSQLFNYFRDKAFPNLSARQLGVMPDLVLDMFINGYYLNVFKTQSTDVNRPYQDKDKRGGIFDAVFTRGDQTTLLTARHDLKNKGLNDISTIIKQELTEGRALALSHTYANVSISHVINLWGADFNAEGNLEAIYVTDSDANASIGMKKYFVGINAHGHVAISAKKIEGENIGAQVLGLFTLSSGKEIWQKLSLEHHHHHH
Given back: 737

Asked: For the protein PRT-79 (protein) MANQEIRYSEVTPKTITSVWTKGVTPPAKFTQNEDVFHAPYVANQGWYDITKTFNGKDDLLCGAATAGNMLHWWFDQNKEQIEAYLKKHPEKQKIMFGDQELLDVRKVINTKDDQTNSELFNYFKDKAFPNLSARRLGVMPDLVLDMFINGYRLNVGKTQTTDVNRTYQDKDPRGGIFDAVFTRGDQSKLLTSRHDFKEKNLKEISDLIKQELTEGKALGLSHTYANVRINHVINLWGADFDSEGNLEAIYVTDSDSNASIGMKKYFVGVNSAGKVAISAKEIEEDNIGAQVLGLFTLSTGQDIWEQTN , what Enzyme Activity Endpoint Assay (purified): Fab′2 is on record?
Given back: 0

Asked: Bench note: what Enzyme Activity Endpoint Assay (purified): Fab′2 did PRT-75 (protein) MANQEIRYSEVTPYHVTSVWTKGVTPPAKFTQGEDVFHAPYVANQGWYDITKTFNGKDDLLCGAATAGNMLHWWFDQNKEKIEAYLKKHPEKQKIMFGDQELLDVRKVINTKDDQTNSELFNYFRDKAFPGLSARRLGVMPDLVLDMFINGYRLNVTKTQTTDVNETYQTKDKRGGIFDAVFTRGDQSKLLTSRHDFKEKNLKEISDLIKKELTEGKALGLSHTYANVRINHVINLWGADFDSNGNLKAIYVTDSDSNASIGMKKYFVGVNSAGKVAISAKEIKDDNIGAQVLGLFTLSTGQDIWNQTN show?
Given back: 12
